- target-or-system: VTCN1, Q7Z7D3
- Sequence (Q7Z7D3 whole entry): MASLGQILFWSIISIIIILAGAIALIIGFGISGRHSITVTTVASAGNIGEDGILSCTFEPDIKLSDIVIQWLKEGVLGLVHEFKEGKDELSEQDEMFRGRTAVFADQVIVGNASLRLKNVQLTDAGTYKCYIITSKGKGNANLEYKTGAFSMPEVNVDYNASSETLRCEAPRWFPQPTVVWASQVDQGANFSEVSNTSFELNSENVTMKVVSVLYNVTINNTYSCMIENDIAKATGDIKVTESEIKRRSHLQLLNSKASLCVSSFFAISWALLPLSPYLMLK
readout: binding in a display sort

These recorded examples may help you get a feel for the data.
design_601_c3fd07b4-2f34-4ad8-bd4e-2749faf628eb_1417_dldesign_0_cycle1_af2pred (protein) EEEKLKEAAKRLHEAREKTNEAEQKLKLEGKKNAEELKKELEAAAKVAKAVAEEVKANPEYAKIAETLAKRAEKAAQEA: not found (inactive)
design_609_7ee6ce64-4629-41e8-bcb4-ba0da017284d_900_dldesign_0_cycle1_af2pred (protein) GKEMVDKYSKERKKIAEAAKLAKEGKENPETFEKKAEEALKIAEEAAKEGDEGIKFQAENLKAYIEKLRKEK: not found (inactive)
design_599_7ce25d4d-e004-4b84-a16f-baf856d943ab_506_dldesign_0_cycle1_af2pred (protein) MEEEKKAIEEAKERAKEIAEKAVKEAKKAKTPKEISEAIREMVRKLRELVKEVREKYSEETAEKVKEIAAKERLKAVDEIAAAK: not found (inactive)
design_605_6ebdab39-eaab-4492-afcb-164e20c3b25e_1042_dldesign_0_cycle1_af2pred (protein) ELEKLAKKAEDAAAVLKNSKARAHALSAALQLEAGNKELAKKSATAAAAVLDANPDITPEEEKARDALKEIADWLA: not found (inactive)
design_376_bf9d4634-8475-4fdb-a175-1db49a23bdcd_2406_dldesign_0_cycle1_af2pred (protein) HMEELEKLLKEAEKAAKEAAEAYKKDPAEGKKWASKARDLSIEAISLDPSAYEKAKEIAEKVAEVDPEAGKKIKAILERTYEALKRA: not found (inactive)

Required: binding in a display sort, one value per binder below.
1. design_603_0b98da89-d791-4423-9b2d-fd1b7292da18_386_dldesign_0_cycle1_af2pred (protein) EKEEIIKRAKEAAERMKELAKKDPKYAEDAKKGKEVAEKAIEKAKESDKSLASAEALAESLELAVEYLEKKLKE
2. design_605_6ebdab39-eaab-4492-afcb-164e20c3b25e_250_dldesign_0_cycle1_af2pred (protein) AAAAAAARLAAGLAAAAKFVEEATKKAREIAAKKTPEESAKAKAEVEEYEAMARDALAMGNAAGARSIARLALEKVS
3. design_604_3e0b3014-b333-46f1-8adc-d7f0bf8048fa_1627_dldesign_0_cycle1_af2pred (protein) ENLEKAKAADEKAKKFEDKAKEYEAKGKAEGKKYLYKAAAYYYAAAHAYNVAAKYYEKEGKAEEAAAAKAKAKEAEAKGNELAAK
4. design_605_6ebdab39-eaab-4492-afcb-164e20c3b25e_1837_dldesign_0_cycle1_af2pred (protein) MDKEKIKKKLYKELSEAAKKGAMAVFDVVDKAYDEGTAELAKEAAEEVAKETTPEEAKAMRAGARYLEAATA
5. design_602_0a1f3d3d-7d26-454b-9b34-ebe8ef9bc7d4_418_dldesign_0_cycle1_af2pred (protein) SEEAKKLAEEAKKEMGNIRLDAYDKASEVNVEEAKKIFEEAKEKIEKIAKETAELVPEYAEEILKGGEKAMKALERAAKDIEKAE

Reply:
1. not found (inactive)
2. not found (inactive)
3. not found (inactive)
4. not found (inactive)
5. not found (inactive)

Each recorded value in this set is attributed to paper PMC13494018.
